Assay: Nuclear factor erythroid 2-related factor 2/antioxidant responsive element (Nrf2/ARE) small molecule agonists: luciferase reporter gene qHTS assay in human keratinocytes (AID 1919969); also: nearly all actives have a fitted effect of over 35% in size
Details: KeratinoSens HaCaT ARE-luciferase, luminescence, 24 h; series mostly up to 92.4 µM
Records with an inconclusive call do not appear. Active and inactive are the calls of the source. Calls follow the shape of the full dose curve.
Permitted responses: class 1 for active, class 0 for inactive

Task: Just curious, what result did CCC(C)n1ncn(-c2ccc(N3CCN(c4ccc(OC[C@H]5CO[C@](Cn6cncn6)(c6ccc(Cl)cc6Cl)O5)cc4)CC3)cc2)c1=O (stereo not given in full) get here?
Result: class 0

Task: // return assay outcome for C=CCOCC(O)CS(=O)(=O)O (stereo not given)
Result: class 1

Task: Could you check what this test reported for CC/C=C\C/C=C\C/C=C\CCCCCCCC(=O)OCC ?
Result: class 1

Task: Record lookup: outcome of this test for SCCOCCOCCS ?
Result: class 0

Task: // return assay outcome for CCCCCCCCCCCCCCCCCC[N+](C)(C)Cc1ccccc1
Result: class 0

Task: // return assay outcome for Cc1oc(=O)oc1CN1CCN(c2cc3c(cc2F)c(=O)c(C(=O)O)c2n3C(C)S2)CC1 (stereo not given)
Result: class 0

Task: What was the test verdict on CCC(C(=O)NC(=O)NC(C)=O)c1ccccc1 (stereo not given) ?
Result: class 0

Task: I'd appreciate the recorded outcome for CC1(C)O[C@@H]2C[C@H]3[C@@H]4CCC5=CC(=O)CC[C@]5(C)[C@@]4(F)[C@@H](O)C[C@]3(C)[C@]2(C(=O)CCl)O1 from this test.
Result: class 0

Task: Could you kindly confirm the outcome this assay logged for CCC1(c2cnc[nH]2)Cc2ccccc2C1 ?
Result: class 0

Task: Tell me the recorded outcome of this test for CC(=O)OCCC(C)CC(C)(C)C (stereo not given) .
Result: class 0

Task: Recorded test call requested for CC(C)(C)CC(C)(C)N
Result: class 0

Task: Which outcome did this test record for the compound CCCCC(=O)O[C@]1(C(=O)CO)[C@@H](C)C[C@H]2[C@@H]3CCC4=CC(=O)C=C[C@]4(C)[C@@]3(F)[C@@H](O)C[C@@]21C ?
Result: class 0

Task: In this assay, the call recorded for CC(=O)OC/C=C(/C)CCC=C(C)C was what?
Result: class 0

Task: So what was the verdict on C[C@H](CCC(=O)O)[C@H]1CC[C@H]2[C@@H]3CC[C@@H]4C[C@H](O)CC[C@]4(C)[C@H]3CC[C@]12C in this test?
Result: class 0

Task: What did this assay record as the result for COC(=O)CSc1cc(N=c2sc(=O)n3n2CCCC3)c(F)cc1Cl ?
Result: class 0

Task: Kindly provide the recorded test outcome for the following compound: CCCOC(=O)CCCCC(=O)OCCC
Result: class 0

Task: Assay result, entry Fc1ccccc1[C@@H](F)COC1CCC(Nc2ncnc3[nH]ncc23)CC1 (stereo not given in full) — outcome?
Result: class 0

Task: Which outcome was entered for the compound NCc1ccccc1 in this test?
Result: class 0

Task: What call does the record list for CC(C)(C)CCCCCCOC(=O)c1ccccc1C(=O)OCCCCCCC(C)(C)C ?
Result: class 0

Task: What did the test return for NC(CSCC(=O)O)C(=O)O (stereo not given) ?
Result: class 0

Task: Call for entry CCC(CN)=C(c1ccccc1)c1ccccc1 :
Result: class 0

Task: Could you check what this test reported for O=c1cc(-c2ccccc2)oc2cc(O)cc(O)c12 ?
Result: class 1

Task: Please let me know the test result on file for Cc1c(O)cccc1O .
Result: class 0

Task: State the result this test recorded for BrCc1cccc(Oc2ccccc2)c1 .
Result: class 0

Task: Please let me know the test result on file for Oc1ccc2c(c1)Cc1ccccc1-2 .
Result: class 0

----------
Target: Beta-2 adrenergic receptor (Homo sapiens)
Experiment: Adrenergic beta2 receptor (ADRB2) small molecule antagonists, cell-based qHTS assay (AID 1963592); also: nearly all actives have a fitted effect of over 50% in size
Details: CHO-ADRB2 cells, isoproterenol-stimulated cAMP HTRF ratio, 0.5 h; series mostly up to 92.4 µM
Results filed as inconclusive are left out. Active and inactive are the calls of the source. Calls come from the whole dose curve.
Thanks in advance; please answer with one of these: True for active, False for inactive

Task: Assay outcome for C[C@H]1[C@H]2CC[C@H]3[C@@H]4CC=C5C[C@@H](N(C)C)CC[C@]5(C)[C@H]4CC[C@]23CN1C : what was it?
Result: False

Task: What is the recorded call for this molecule in the test? O=[N+]([O-])c1ccc(O)c2ncccc12
Result: False

Task: Lab log entry: COc1cccc(N(C)C(=S)Oc2ccc3c(c2)CCCC3)n1 — outcome as called in the assay?
Result: False

Task: Per the records of this test, what outcome belongs to CN1CCC(Nc2ncc3ncnc(Nc4ccc(F)c(Cl)c4)c3n2)CC1 ?
Result: False

Task: In this assay, the call recorded for CCOc1ccc2nc3cc(N)ccc3c(N)c2c1 was what?
Result: False

Task: Assay outcome for CN(C)CCOc1ccc(/C(=C(/CCCl)c2ccccc2)c2ccccc2)cc1 : what was it?
Result: True

Task: Dear all, I need the recorded test outcome for CCn1nc(C)c2c1C(=O)NCC(c1ccc(O)cc1)=N2 , thank you.
Result: False

Task: Name the outcome recorded for COC(OC)(C(=O)c1ccccc1)c1ccccc1 in the assay.
Result: False

Task: Outcome logged for CC(Cc1cccc(C(F)(F)F)c1)NCCOC(=O)c1ccccc1 (centres undefined) in this assay:
Result: True

Task: // param item: Cc1c(C)c2c(c(C)c1OC(=O)c1cccnc1)CC[C@@](C)(CCC[C@H](C)CCC[C@H](C)CCCC(C)C)O2 ; yields the recorded call
Result: False

Task: Status in this test for O=C(O)c1ccc2cc(C(=O)O)ccc2c1 ?
Result: False

Task: Record lookup: outcome of this test for CSc1c(Cl)c(Cl)c(Cl)c(Cl)c1Cl ?
Result: False

Task: What is the recorded call for this molecule in the test? CN(C)CCOc1ccccc1Cc1ccccc1
Result: True

Task: Which outcome did this test record for the molecule CCCCCCOc1ccc(O)cc1 ?
Result: False

Task: Test call for this molecule, please: NC(=O)Nc1nc2ccccc2[nH]1
Result: False

Task: Please indicate how the test categorized CC(C)c1ccc2cc(C(C)C)ccc2c1 .
Result: False

Task: Outcome logged for COC(=O)C1=C(C)NC(C)=C(C(=O)O[C@@H]2CCCN(Cc3ccccc3)C2)[C@@H]1c1cccc([N+](=O)[O-])c1 in this assay:
Result: False

Task: Assay result, entry Cc1ccc(N/N=c2\c(=O)cc/c(=N\Nc3ccc(S(=O)(=O)O)cc3)c2=O)c(C)c1 — outcome?
Result: False

Task: GET /call?item= O=C(N/N=C/c1ccccc1O)c1ccncc1 returns the recorded outcome of this test.
Result: False

Task: Give the logged outcome of this assay for the following molecule: COc1cc([C@@H]2c3cc4c(cc3[C@@H](O[C@@H]3O[C@@H]5CO[C@@H](C)O[C@H]5[C@H](O)[C@H]3O)[C@H]3COC(=O)[C@H]23)OCO4)cc(OC)c1O
Result: False

Task: Tell me the assay call for CC(C)C(=O)OCCc1ccccc1 please.
Result: False

Task: What is the recorded call for this molecule in the test? NCCN1CCOCC1
Result: False

Task: # fetch the recorded call for CC(=O)[O][Al] here
Result: False

Task: What is the recorded call for this molecule in the test? CCCCNC1CC(C)(C)NC(C)(C)C1
Result: False

Task: Called result for CC(C)(N)C#N
Result: False

Task: Identify the outcome logged in this assay for the molecule shown: CN1CC(=O)N2[C@H](c3ccc4c(c3)OCO4)c3[nH]c4ccccc4c3C[C@@H]2C1=O
Result: False

Task: # fetch the recorded call for C=C(C)C(=O)OCCOP(=O)(O)OCCOC(=O)C(=C)C here
Result: False

Task: Could you please tell me the result logged for CN(C(=O)CN(CCO)CC(=O)N(C)C(C)(C)Cc1ccccc1)C(C)(C)Cc1ccccc1 in this assay?
Result: False

Task: Recorded test call requested for O=C(O)CCSSCCC(=O)O
Result: False

Task: What did the test return for CCCCCCCC/C=C\CCCCCCCCO ?
Result: True

Task: Short answer needed: outcome of this test for CC/C=C\CCCCCCCCCCOC(C)=O ?
Result: False

Task: Answer briefly: the call reported for O=C(O)COCCN1CCN(C(c2ccccc2)c2ccc(Cl)cc2)CC1 (centres undefined) in this assay.
Result: False

Task: Short answer needed: outcome of this test for CC(=O)Nc1ccc(OCCOCCOc2ccc(NC(C)=O)cc2)cc1 ?
Result: False

Task: What did the test return for NC(N)=NS(=O)(=O)c1ccc(N)cc1 ?
Result: False

Task: So what was the verdict on CCO[C@@H]1O[C@H](C(COCc2ccccc2)OCc2ccccc2)[C@H](OCc2ccccc2)[C@H]1O (some centres undefined) in this test?
Result: False

Task: What is the recorded call for this molecule in the test? CCOC(=O)c1ccccc1C(=C1C=C(Br)C(=O)C(Br)=C1)c1cc(Br)c(O)c(Br)c1
Result: False

Task: Per the records of this test, what outcome belongs to O=C1NCC2(CCN(CCc3ccccc3)CC2)O1 ?
Result: False

Task: Each molecule tested received a call. Report the one for O=C(CN1CCNCC1)NC1CCCCC1 .
Result: False

Task: State the result this test recorded for CC(C)=CC=O .
Result: False

Task: State the result this test recorded for Cc1ccc(NC(=O)c2ccc(CN3CCN(C)CC3)cc2)cc1Nc1nccc(-c2cccnc2)n1 .
Result: False

Task: Please let me know the test result on file for C#C[C@]1(O)CC[C@H]2[C@@H]3[C@H](C)CC4=C(CCC(=O)C4)[C@H]3CC[C@@]21C .
Result: True

Task: Kindly provide the recorded test outcome for the following molecule: OCCOc1cccc(OCCO)c1
Result: False

Task: Any idea what this test logged for COc1nccnc1CC(C)C ?
Result: False

Task: Per the assay record, what outcome was assigned to Nc1ccc(Oc2ccc(N)c(N)c2)cc1 ?
Result: False

Task: What did this assay record as the result for O=C(O)c1c(Cl)ccc(Cl)c1Cl ?
Result: False

Task: Which result was noted for this molecule in the test: Cc1ccc(N=Nc2c(O)c(C(=O)O)cc3ccccc23)c(S(=O)(=O)O)c1
Result: False

Task: Short answer needed: outcome of this test for CCCCCCCCCC(C)C=O (centres undefined) ?
Result: False

Task: Record lookup: outcome of this test for CN(C)CCOC(c1ccccc1)c1ccccc1 ?
Result: False

Task: Name the outcome recorded for CCCCC=O in the assay.
Result: False
